- Tested on: Staphylococcus sp.
- test.name: Antibacterial activity against methicillin-resistant coagulase negative Staphylococci (MRCNS)
- Assay type: functional
readout.type: MIC90 (µg/mL)
Kindly answer with a numeric value in µg/mL, unit omitted.

-- ask Give the measured MIC90 of C[C@@H](O)[C@H]1C(=O)N2C(C(=O)O)=C(c3ccc4c(c3)-c3ccc(C[N+]56CC[N+](CC(=O)Nc7ccccn7)(CC5)CC6)cc3C4=O)[C@H](C)[C@H]12.[Cl-].[Cl-] .
-- reply 8

-- ask Can you handle C[C@@H](O)[C@H]1C(=O)N2C(C(=O)O)=C(c3ccc4c(c3)-c3ccc(C[N+]56CC[N+](CC(=O)Nc7ccncc7)(CC5)CC6)cc3C4=O)[C@H](C)[C@H]12.[Cl-].[Cl-] next?
-- reply 4

-- ask Can you handle C[C@@H](O)[C@H]1C(=O)N2C(C(=O)O)=C(c3ccc4c(c3)-c3ccc(C[N+]56CC[N+](CC(=O)Nc7ccc(C#N)cc7)(CC5)CC6)cc3C4=O)[C@H](C)[C@H]12.[Cl-].[Cl-] next?
-- reply 4

-- ask Can you handle C[C@@H](O)[C@H]1C(=O)N2C(C(=O)O)=C(c3ccc4c(c3)-c3ccc(C[N+]56CC[N+](CC(=O)N(C)C)(CC5)CC6)cc3C4=O)C[C@H]12.[Cl-].[Cl-] next?
-- reply 4

-- ask Can you handle CC(=O)C[N+]12CC[N+](Cc3ccc4c(c3)C(=O)c3ccc(C5=C(C(=O)O)N6C(=O)[C@H]([C@@H](C)O)[C@H]6C5)cc3-4)(CC1)CC2.[Cl-].[Cl-] next?
-- reply 4

-- ask Can you handle C[C@@H](O)[C@H]1C(=O)N2C(C(=O)O)=C(c3ccc4c(c3)-c3ccc(C[N+]56CC[N+](CC(=O)N(C)C)(CC5)CC6)cc3C4=O)[C@H](C)[C@H]12.[Cl-].[Cl-] next?
-- reply 16

-- ask Can you handle CC(=O)c1ccc(NC(=O)C[N+]23CC[N+](Cc4ccc5c(c4)C(=O)c4ccc(C6=C(C(=O)O)N7C(=O)[C@H]([C@@H](C)O)[C@H]7[C@H]6C)cc4-5)(CC2)CC3)cc1.[Cl-].[Cl-] next?
-- reply 4

-- ask Can you handle C[C@@H](O)[C@H]1C(=O)N2C(C(=O)O)=C(c3ccc4c(c3)-c3ccc(C[N+]56CC[N+](CC(=O)c7ccccc7)(CC5)CC6)cc3C4=O)[C@H](C)[C@H]12.[Cl-].[Cl-] next?
-- reply 4

-- ask Can you handle C[C@@H](O)[C@H]1C(=O)N2C(C(=O)O)=C(c3ccc4c(c3)-c3ccc(C[N+]56CC[N+](CC(=O)NC7CCCC7)(CC5)CC6)cc3C4=O)[C@H](C)[C@H]12.[Cl-].[Cl-] next?
-- reply 8

-- ask Can you handle C[C@@H](O)[C@H]1C(=O)N2C(C(=O)O)=C(SCCNC=N)C[C@H]12 [IMIPENEM ANHYDROUS] next?
-- reply 256
